- Test system: 786-0 renal
- ASSAY METHOD TEXT: NCI tumour cell line growth inhibition, 48 h
VALUE TYPE: TGI (µM)

{"COMPOUND": "CC(C)C[C@@H]1NC(=O)[C@@H]2CCCN2C(=O)[C@@H]2CCCN2C(=O)[C@H](CC(C)C)NC(=O)[C@H](CO)NC(=O)[C@H](CCCCN)NC(=O)[C@H]([C@H](C)O)NC(=O)[C@@H]2CCCC[C@@H](NC1=O)C(=O)N[C@@H](Cc1ccccc1)C(=O)N1CCC[C@H]1C(=O)N[C@@H](CC(=O)O)C(=O)NCC(=O)N[C@@H](CCCN=C(N)N)C(=O)N2", "ASSAY TARGET": "786-0 renal", "RELATIONAL OPERATOR": ">", "ENDPOINT RESULT": 50}
{"COMPOUND": "CC(C)c1nc2c(Cl)c3ncccc3cc2[nH]c1=O", "ASSAY TARGET": "786-0 renal", "RELATIONAL OPERATOR": ">", "ENDPOINT RESULT": 100}
{"COMPOUND": "CCOC1C=CCCO1 (stereo not given)", "ASSAY TARGET": "786-0 renal", "RELATIONAL OPERATOR": ">", "ENDPOINT RESULT": 100}
{"COMPOUND": "CCCCCCCCCC1CC(=O)NCC(=O)NC(C(C)C)C(=O)NC(CC(C)C)C(=O)NC(C)C(=O)NC(C(C)C)C(=O)O1 (stereo not given)", "ASSAY TARGET": "786-0 renal", "RELATIONAL OPERATOR": "=", "ENDPOINT RESULT": 35}
{"COMPOUND": "CC1CC(C)(O)CC(C(O)CC2CC(=O)NC(=O)C2)C1=O (stereo not given)", "ASSAY TARGET": "786-0 renal", "RELATIONAL OPERATOR": "=", "ENDPOINT RESULT": 0.741}
{"COMPOUND": "OC(CNc1ccnc2cc(Cl)ccc12)CNC1CCCCC1 (stereo not given)", "ASSAY TARGET": "786-0 renal", "RELATIONAL OPERATOR": "=", "ENDPOINT RESULT": 24.8}
{"COMPOUND": "C/C(=N\\NC(=S)NNC(=S)N(C)c1ccccc1)c1ccccn1", "ASSAY TARGET": "786-0 renal", "RELATIONAL OPERATOR": ">", "ENDPOINT RESULT": 47.2}
{"COMPOUND": "C/C(=N/NC(=S)NCCc1ccccn1)c1cnccn1", "ASSAY TARGET": "786-0 renal", "RELATIONAL OPERATOR": "=", "ENDPOINT RESULT": 57.2}
{"COMPOUND": "CCOC(=O)NC(=O)c1cn(CCN2CCN(C(=O)NCCCCCCNC(=O)N3CCN(CCn4cc(C(=O)NC(=O)OCC)c(=O)n(CCN(CC)CC)c4=O)CC3)CC2)c(=O)n(CCC(CC)CC)c1=O", "ASSAY TARGET": "786-0 renal", "RELATIONAL OPERATOR": ">", "ENDPOINT RESULT": 100}
{"COMPOUND": "NC(CCSC(F)F)C(=O)O (stereo not given)", "ASSAY TARGET": "786-0 renal", "RELATIONAL OPERATOR": ">", "ENDPOINT RESULT": 100}

====

- System: SK-OV-3 ovarian
- ASSAY METHOD TEXT: NCI tumour cell line growth inhibition, 48 h
Entries and their TGI values follow.
VALUE TYPE: TGI

{"MOLECULE": "CC(=O)OC[C@@H](OC(C)=O)[C@@H](OC(C)=O)[C@H]1OC[C@@H]2C[C@H]([C@H]1OC(C)=O)N(Cc1ccccc1)O2", "ENDPOINT RESULT": "> 100 µM"}
{"MOLECULE": "C=CC(=O)Nc1cccc(C)c1Nc1ncc2cc(-c3c(Cl)c(OC)cc(OC)c3Cl)ccc2n1", "ENDPOINT RESULT": "82.6 µM"}
{"MOLECULE": "CSC1C(=O)c2ccccc2/C(=N/Nc2nc3ccccc3s2)C1C (centres undefined)", "ENDPOINT RESULT": "> 50 µM"}
{"MOLECULE": "CCCCCCCCCCCC[n+]1ccc(C(N)=O)cc1", "ENDPOINT RESULT": "15.2 µM"}
{"MOLECULE": "O=Cc1ccc(O)c2ncccc12", "ENDPOINT RESULT": "39.3 µM"}
{"MOLECULE": "COc1cc(C2(O)c3ccccc3C3=NCCN32)cc(OC)c1OC (centres undefined)", "ENDPOINT RESULT": "> 100 µM"}
{"MOLECULE": "Clc1ccccc1-c1nnc2c(-c3ccccc3)nc3ccccc3n12", "ENDPOINT RESULT": "> 100 µM"}
{"MOLECULE": "Clc1ccc(-c2nc3ccc(C45CC6CC(CC(C6)C4)C5)cc3[nH]2)cc1", "ENDPOINT RESULT": "> 100 µM"}
{"MOLECULE": "OC(CNC1CCCC1)Cn1c2ccccc2c2ccccc21 (centres undefined)", "ENDPOINT RESULT": "43.4 µM"}
{"MOLECULE": "Cc1ccc(S(=O)(=O)NC2=NS(=O)(=O)c3cc(C)c(Cl)cc3S2)cc1", "ENDPOINT RESULT": "> 100 µM"}
{"MOLECULE": "CC(C)CCCC(C)[C@H]1CC[C@H]2[C@@H]3CC[C@H]4C[C@@H](CCC=C(c5cc(Cl)c(O)c(C(=O)O)c5)c5cc(Cl)c(O)c(C(=O)O)c5)CC[C@]4(C)[C@H]3CC[C@]12C (some centres undefined) (tested in a mixture with another compound)", "ENDPOINT RESULT": "> 50 µM"}
{"MOLECULE": "CC1=C(C(=O)Nc2ccc(F)c(Cl)c2)C(c2cccc(Oc3ccccc3)c2)NC(=O)N1 (centres undefined)", "ENDPOINT RESULT": "32.7 µM"}
{"MOLECULE": "CCCCCCCCCC1CC(=O)NCC(=O)NC(C(C)C)C(=O)NC(CC(C)C)C(=O)NC(C)C(=O)NC(C(C)C)C(=O)O1 (centres undefined)", "ENDPOINT RESULT": "39.2 µM"}
{"MOLECULE": "COc1ccccc1/C=N/N=C(\\N)NO", "ENDPOINT RESULT": "> 100 µM"}
{"MOLECULE": "Oc1ccc(N=Nc2ccc(N=Nc3ccccc3)cc2)cc1", "ENDPOINT RESULT": "7.87 µM"}
{"MOLECULE": "Cc1nn(-c2nc3ccccc3[nH]2)c2c1C(c1ccc3c(c1)OCO3)CC(=O)N2 (centres undefined)", "ENDPOINT RESULT": "5.77 µM"}
{"MOLECULE": "COc1ccc(/C=C2\\CN(C)CC3C2=NC(=S)NC3c2ccc(OC)cc2)cc1 (centres undefined)", "ENDPOINT RESULT": "> 100 µM"}
{"MOLECULE": "O=C1c2ccccc2-c2c1c(-c1ccccc1)c1n2C2(C(=O)c3ccccc3C2=O)C2C(=O)N(c3ccccc3)C(=O)C12 (centres undefined)", "ENDPOINT RESULT": "> 100 µM"}
{"MOLECULE": "COc1ccc2c(c1)OC(N)=C(C#N)C2c1ccc(F)cc1 (centres undefined)", "ENDPOINT RESULT": "66.3 µM"}

====

- Test system: CCRF-CEM leukemia
- ASSAY METHOD TEXT: NCI tumour cell line growth inhibition, 48 h
VALUE TYPE: TGI (µM)

{"COMPOUND": "Nc1cccc(C#Cc2cccc(C#Cc3cccc(N)n3)n2)n1", "ASSAY TARGET": "CCRF-CEM leukemia", "RELATIONAL OPERATOR": "=", "ENDPOINT RESULT": 31.4}
{"COMPOUND": "O=C1C[C@H]2CC3(CC[C@H]2CN1)OCCO3", "ASSAY TARGET": "CCRF-CEM leukemia", "RELATIONAL OPERATOR": ">", "ENDPOINT RESULT": 100}
{"COMPOUND": "CC(=O)c1cccc(NC(=O)C(=O)C(C(=O)c2ccccc2F)C2OC(=O)c3ccccc32)c1 (stereo unspecified)", "ASSAY TARGET": "CCRF-CEM leukemia", "RELATIONAL OPERATOR": "=", "ENDPOINT RESULT": 49.6}
{"COMPOUND": "OC(CNc1ccnc2cc(Cl)ccc12)CNC1CCCCC1 (stereo unspecified)", "ASSAY TARGET": "CCRF-CEM leukemia", "RELATIONAL OPERATOR": "=", "ENDPOINT RESULT": 42.4}
{"COMPOUND": "N/C(COc1ccc(Cl)cc1)=N\\NC(=O)c1ccncc1", "ASSAY TARGET": "CCRF-CEM leukemia", "RELATIONAL OPERATOR": ">", "ENDPOINT RESULT": 100}
{"COMPOUND": "COc1ccc2c(c1)CC1c3c(cc4c(c3-2)OCO4)CCN1C (stereo unspecified)", "ASSAY TARGET": "CCRF-CEM leukemia", "RELATIONAL OPERATOR": ">", "ENDPOINT RESULT": 100}
